Target: T1, Mouse ST2 (mouse, UniProt P14719 27-332, limits assumed)
T1 construct: also called mouse ST2 protein
T1 sequence (looked up): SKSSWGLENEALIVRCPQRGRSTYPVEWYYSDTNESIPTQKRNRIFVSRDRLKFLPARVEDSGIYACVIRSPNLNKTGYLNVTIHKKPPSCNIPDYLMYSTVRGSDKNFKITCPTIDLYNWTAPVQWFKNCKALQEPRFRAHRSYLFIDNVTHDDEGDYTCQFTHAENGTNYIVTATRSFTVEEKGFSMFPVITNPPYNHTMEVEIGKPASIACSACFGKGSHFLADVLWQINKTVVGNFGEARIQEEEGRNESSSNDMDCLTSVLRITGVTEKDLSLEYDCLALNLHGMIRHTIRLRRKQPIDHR
Experiment: SPR (Carterra), antibody immobilized, ST2 analyte, 1:1

{"BINDER": "Human ST2 IgG1 Antibody 104 (antibody, V domains shown, IgG1, kappa) VH: QVQLVQSGAEVKKPGSSVKVSCKASGYTFTNYAIIWVRQAPGQGLEWMGGIIPVFGTADYTQTFQGRVTITADESTSTAYMELSSLRSEDTAVYYCARVSTNYYDSSGYYAFDYWGQGTLVTVSS VL: DIQMTQSPSSLSASVGDRVTITCRASQSISSYLNWYQQKPGKAPKLLIYDASSLQSGVPSRFSGSGSGTDFTLTISSLQPEDFATYYCQQTYHTPWTFGQGTKVEIKR", "koff [s⁻¹]": 0.096}
{"BINDER": "Human ST2 IgG1 Antibody 83 (antibody, V domains shown, IgG1, kappa; also called ST2 Antibody 83) VH: EVQLLESGGGLVKPGGSLRLSCAASGFTFSSYWMSWVRQAPGKGLEWVSAIGTAGDTYYPGSVKGRFTISRDDSKNTLYLQMNSLKTEDTAVYYCAILRRDKVWPFDYWGQGTLVTVSS VL: DIQMTQSPSSLSASVGDRVTITCRASQSISSHLHWYQQKPGKAPKLLIYAASSLQSGVPSRFSGSGSGTDFTLTISSLQPEDFATYYCQQSYSSPVTFGGGTKVEIKR", "koff [s⁻¹]": 0.063}
{"BINDER": "Human ST2 IgG1 Antibody 70 (antibody, V domains shown, IgG1, kappa; also called ST2 Antibody 70) VH: QVQLVQSGAEVKKPGSSVKVSCKASGYAFTDYFIHWVRQAPGQGLEWMGGIIPIFGTANYAQKFQGRVTITADKSTSTAYMELSSLRSEDTAVYYCARVAYGAFDIWGQGTMVTVSS VL: EIVMTQSPATLSVSPGERATLSCRASQSVSSSYLAWYQQKPGQAPRLLIYGASTRATGIPARFSGSGSGTEFTLTISSLQSEDFAVYYCQQYNNWPLTFGGGTKVEIKR", "koff [s⁻¹]": 0.13}
{"BINDER": "Human ST2 IgG1 Antibody 89 (antibody, V domains shown, IgG1, kappa; also called ST2 Antibody 89) VH: EVQLLESGGGLVKPGGSLRLSCAASGFTFSSYWMSWVRQAPGKGLEWVSAISGTAINTYYADSVKGRFTISRDDSKNTLYLQMNSLKTEDTAVYYCARVRRDSSGGGAFDIWGQGTMVTVSS VL: DIQMTQSPSSLSASVGDRVTITCRASQGISNNLNWYQQKPGKAPKLLIYAASSLQTGVPSRFSGSGSGTDFTLTISSLQPEDFATYYCQQSYSTPPTFGQGTKVEIKR", "koff [s⁻¹]": 0.1}
{"BINDER": "Human ST2 IgG1 Antibody 103 (antibody, V domains shown, IgG1, kappa; also called ST2 Antibody 103) VH: QVQLVQSGAEVKKPGASVKVSCKASGYTFTSYYMHWVRQAPGQGLEWMGWMNPNSGNTGYAQKFQGRVTMTRDTSTSTVYMELSSLRSEDTAVYYCARETSFDYYYGMDVWGQGTTVTVSS VL: DIQMTQSPSSLSASVGDRVTITCRASQSISNWLAWYQQKPGKAPKLLIYDGSNLGTGVPSRFSGSGSGTDFTLTISSLQPEDFATYYCLQDFTYPLTFGGGTKVEIKR", "koff [s⁻¹]": 0.0058}
